B1: Zinc finger homeobox protein 3, residues 2244 to 2299; numbered along this chain, Q15911 (parent)
chain: SSRTRFTDYQLRVLQDFFDANAYPKDDEFEQLSNLLNLPTRVIVVWFQNARQKARK

# Variants of: B1
# test protocol: abundance fitness (aPCA) (normalised: wild type 0, dead -1); higher = more abundant; growth selection in yeast, the domain comes from the species named
# run conditions: Homo sapiens

>  <mut>
Y23Q

>  <abundance fitness>
-0.011

$$$$
>  <mut>
D8W

>  <abundance fitness>
-0.401

$$$$
>  <mut>
N34V

>  <abundance fitness>
0.001

$$$$
>  <mut>
L35I

>  <abundance fitness>
0.067

$$$$
>  <mut>
Y9Q

>  <abundance fitness>
0.211

$$$$
>  <mut>
R5H

>  <abundance fitness>
0.218

$$$$
>  <mut>
R12Y

>  <abundance fitness>
-0.524

$$$$
>  <mut>
S1E

>  <abundance fitness>
0.181

$$$$
>  <mut>
N37G

>  <abundance fitness>
-0.046

$$$$
>  <mut>
T40C

>  <abundance fitness>
-0.012

$$$$
>  <mut>
A22C

>  <abundance fitness>
-0.156

$$$$
>  <mut>
D19P

>  <abundance fitness>
-0.686

$$$$
>  <mut>
Y23C

>  <abundance fitness>
-0.283

$$$$
>  <mut>
L14I

>  <abundance fitness>
-0.108

$$$$
>  <mut>
S2L

>  <abundance fitness>
0.026

$$$$
>  <mut>
D8P

>  <abundance fitness>
-0.235

$$$$
>  <mut>
V13C

>  <abundance fitness>
-0.276

$$$$
>  <mut>
F6K

>  <abundance fitness>
-0.408

$$$$
>  <mut>
E28Y

>  <abundance fitness>
-0.785

$$$$
>  <mut>
T7D

>  <abundance fitness>
-0.258

$$$$
>  <mut>
S33M

>  <abundance fitness>
-0.638

$$$$
>  <mut>
L32F

>  <abundance fitness>
-0.546

$$$$
>  <mut>
D26E

>  <abundance fitness>
-0.214

$$$$
>  <mut>
L38R

>  <abundance fitness>
-0.517

$$$$
>  <mut>
S2Y

>  <abundance fitness>
0.097

$$$$
>  <mut>
P39W

>  <abundance fitness>
-1.08

$$$$
>  <mut>
K25E

>  <abundance fitness>
-0.306

$$$$
>  <mut>
E28V

>  <abundance fitness>
-0.142

$$$$
>  <mut>
R5F

>  <abundance fitness>
0.234

$$$$
>  <mut>
K25W

>  <abundance fitness>
-0.512

$$$$
>  <mut>
N21R

>  <abundance fitness>
-0.237

$$$$
>  <mut>
T7G

>  <abundance fitness>
-0.487

$$$$
>  <mut>
A22P

>  <abundance fitness>
0.101

$$$$
>  <mut>
V13N

>  <abundance fitness>
-0.244

$$$$
>  <mut>
A22W

>  <abundance fitness>
-0.054

$$$$
>  <mut>
N34P

>  <abundance fitness>
-0.137

$$$$
>  <mut>
T4N

>  <abundance fitness>
0.211

$$$$
>  <mut>
F6R

>  <abundance fitness>
-0.703

$$$$
>  <mut>
N37D

>  <abundance fitness>
-0.032

$$$$
>  <mut>
N21T

>  <abundance fitness>
0.011

$$$$
>  <mut>
L38Q

>  <abundance fitness>
-0.174

$$$$
>  <mut>
D26W

>  <abundance fitness>
-0.376

$$$$
>  <mut>
P24S

>  <abundance fitness>
-0.734

$$$$
>  <mut>
S33W

>  <abundance fitness>
-0.848

$$$$
>  <mut>
S33A

>  <abundance fitness>
-0.109

$$$$
>  <mut>
S33K

>  <abundance fitness>
-0.129

$$$$

The values you see were collected from the Human Domainome abundance scans (Beltran et al. 2025).
